# protocol: Maximal concentration in rats after 1.5 mg/kg intravenous dose
# Format: ADME, organism-based
# Parameters: dose 1.5 mg/kg, route intravenous
# conditionLabel: rat, in vivo
quantityKind: Cmax (ng/mL)
Report only the number, with the unit ng/mL understood.

### Prompt Would you mind telling me what Cmax value was observed for CC(C(=O)O)c1ccc(-c2ccccc2)c(F)c1 (stereo unspecified) ?
### Response 9100

* * *

# protocol: Total body clearance after administration to rats at a dose of 0.5 mg/kg intravenously
# Assay type: ADME, organism-based
# Design: dose 0.5 mg/kg, route intravenous
# conditionLabel: rat, in vivo, iv
quantityKind: Clearance (mL/day/kg)
All answers are understood in mL/day/kg, so give the number only.

### Prompt Request the reported Clearance associated with O=C(O)C1(c2ccc(-c3ccc(C(F)(F)F)cc3)c(F)c2)CC1
### Response 21.6
